Molecular target: Nonstructural protein 3 (Zika virus, UniProt A0A024AXB9)
Sequence (A0A024AXB9 whole entry): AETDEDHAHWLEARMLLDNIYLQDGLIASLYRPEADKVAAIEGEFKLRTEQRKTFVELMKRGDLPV
Experiment: Inhibition of NS2B-NS3 protease in Zika virus Puerto Rico/PRVABC5 assessed as antiviral activity measured 48 hrs post infection by plaque reduction assay
value-type: EC50 (µM)
Give a bare numeral; the unit µM is implied.

Q: State, in one line, measured EC50 of CO[C@@H]1[C@@H](OC(N)=O)[C@@H](O)[C@H](Oc2ccc3c(O)c(NC(=O)c4ccc(O)c(CC=C(C)C)c4)c(=O)oc3c2C)OC1(C)C
Result: 24.4

* * *

Test: Inhibition of RNA-dependent RNA polymerase in Zika virus PRVABC59/Human/2015/Puerto Rico infected in human NSC assessed as antiviral activity measured 72 hrs post infection by CellTiter-Glo assay
We begin with a simple list: items and their reported pEC50.
By convention, pEC50 is the negative base-10 log of a molar concentration.

compound: C#C[C@@]1(O)[C@H](O)[C@@H](COP(=O)(N[C@@H](C)C(=O)OC(C)C)Oc2ccccc2)O[C@H]1n1ccc(=O)[nH]c1=O (some centres not stated)
pEC50: 6.52

Shift focus to the following entry.
Q: State, in one line, measured pEC50 of CC(C)OC(=O)[C@H](C)NP(=O)(OC[C@H]1O[C@@H](n2ccc(=O)[nH]c2=O)[C@H](O)[C@@H]1O)Oc1ccccc1 (some centres not stated)
Result: 6.00

* * *

Molecular target: Genome polyprotein (Zika virus, UniProt A0A143MHK7)
Sequence (A0A143MHK7 whole entry): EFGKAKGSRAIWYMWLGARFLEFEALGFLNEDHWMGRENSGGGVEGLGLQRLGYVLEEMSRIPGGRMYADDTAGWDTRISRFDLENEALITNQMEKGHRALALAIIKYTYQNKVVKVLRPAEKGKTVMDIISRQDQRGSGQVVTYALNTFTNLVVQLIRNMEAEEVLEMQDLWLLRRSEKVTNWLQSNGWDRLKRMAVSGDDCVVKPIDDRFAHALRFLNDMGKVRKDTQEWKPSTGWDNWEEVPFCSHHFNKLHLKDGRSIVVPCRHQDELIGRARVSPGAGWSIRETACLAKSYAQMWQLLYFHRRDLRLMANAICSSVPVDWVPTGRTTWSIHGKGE
Assay: Inhibition of RNA-dependent RNA polymerase in Zika virus GZ01/2016 infected in African green monkey Vero cells assessed as antiviral activity measured 48 hrs post infection by plaque assay
value-type: EC50 (nM)
Give a bare numeral; the unit nM is implied.

Q: State, in one line, measured EC50 of C#C[C@@]1(O)[C@H](O)[C@@H](CO)O[C@H]1n1ccc2c(N)ncnc21
Result: 137

* * *

Biological target: UniProtKB A0A024AXB9
Experiment: Inhibition of NS2B-NS3 protease in Zika virus Puerto Rico/PRVABC5 infected in African green monkey Vero cells assessed as antiviral activity measured 48 hrs post infection by RT-PCR method
value-type: pEC50
By convention, pEC50 is the negative base-10 log of a molar concentration.

Q: State, in one line, measured pEC50 of CO[C@@H]1[C@@H](OC(N)=O)[C@@H](O)[C@H](Oc2ccc3c(O)c(NC(=O)c4ccc(O)c(CC=C(C)C)c4)c(=O)oc3c2C)OC1(C)C
Result: 4.61

* * *

Target: UniProtKB A0A143MHK7
Experiment: Inhibition of RNA-dependent RNA polymerase in Zika virus Ugandan MR-766 infected in human Huh-7 cells assessed as antiviral activity by neutral dye based colorimetric method
value-type: EC50

Q: State, in one line, measured EC50 of Nc1ncnc2c([C@@H]3N[C@H](CO)[C@@H](O)[C@H]3O)c[nH]c12 [BCX-4430]
Result: 14.3 µM

* * *

Molecular target: Genome polyprotein (Zika virus, UniProt A0A143MHK7)
Experiment: Inhibition of RNA-dependent RNA polymerase in Zika virus Ugandan MR-766 infected in human RD cells assessed as antiviral activity by neutral dye based colorimetric method
value-type: pEC50
By convention, pEC50 is the negative base-10 log of a molar concentration.

Q: State, in one line, measured pEC50 of Nc1ncnc2c([C@@H]3N[C@H](CO)[C@@H](O)[C@H]3O)c[nH]c12
Result: 4.84

Sourced from BindingDB's records for doi:10.1021/acs.jmedchem.9b00775
